- Test system: ACHN renal
- Protocol Summary: NCI tumour cell line growth inhibition, 48 h

# Molecule, TGI
data = [
    ("NC(Cc1ccc(S(=O)(=O)O)cc1)C(=O)NC(CCCCNC(=O)NCCCCC(NC(=O)C(N)Cc1ccc(S(=O)(=O)O)cc1)C(=O)NC(Cc1ccc(S(=O)(=O)O)cc1)C(=O)O)C(=O)NC(Cc1ccc(S(=O)(=O)O)cc1)C(=O)O (stereo not given)", "> 100 µM"),
    ("O=P1(O)C=CC2(CCCC2)O1", "> 100 µM"),
    ("NC(=O)c1nnc2ccc(F)cc2c1N", "> 100 µM"),
    ("Cc1ccc(C2=Nc3cc(C)c(Cl)cc3S(=O)(=O)NN2)cc1", "> 100 µM"),
    ("CC12CCC3C(CCC4Cc5[nH]c6ccccc6c5CC43C)C1CCC2O (stereo not given)", "> 100 µM"),
    ("C=C1C(=O)O[C@H]2[C@H]1CC/C(CNC(=O)Cc1c[nH]c3ccccc13)=C\\CC[C@@]1(C)O[C@@H]21", "11.4 µM"),
    ("FC(F)(F)c1nc(N2CCCC2)ncc1-c1nnnn1-c1ccc(Cl)cc1", "> 100 µM"),
    ("COc1cc2c[n+](C)c3c4cc(OC)c(OC)cc4c(OC)cc3c2cc1OC", "> 100 µM"),
    ("Cc1c(N2CCCC2)cc2c(c1NC(=O)c1ccccc1Cl)C(C)(C)CC2(C)C", "28.4 µM"),
    ("COc1ccc(-c2cc(-c3cc(Cl)ccc3Cl)nc3n[nH]c(N)c23)cc1", "> 100 µM"),
    ("COC(=O)c1c2c(cc3c1CC1(Cc4cc5c(c(C=O)c4C1)CCCC5)C3)CCCC2 (stereo not given)", "> 100 µM"),
    ("CCOC(=O)C1(C(N)=O)C(=O)c2ccncc2C1=O (stereo not given)", "> 100 µM"),
    ("COc1cc(C2SCC(=O)N2c2cc(Cl)c(Cl)cc2Cl)cc(OC)c1OC (stereo not given)", "> 100 µM"),
    ("Cc1c2cc[n+](C)cc2c(C)c2c1sc1ccccc12", "33.7 µM"),
    ("CC1CC(C)C(O)C(C2CC(CC(=O)NC3CCCCC3)CC(=O)O2)C1 (stereo not given)", "> 100 µM"),
    ("COc1cc2c(cc1O)CC[C@@H]1[C@@H]2CC[C@]2(C)[C@@H](NCCN(C)C)CC[C@@H]12", "0.991 µM"),
    ("CN(C)CCOc1ccc2[nH]c(C(=O)N3CC(CCl)c4c3cc(N)c3ccccc43)cc2c1 (stereo not given)", "< 0.01 µM"),
    ("O=C(Nc1ccccc1-c1n[nH]c(=S)[nH]c1=O)C(F)(F)F", "> 100 µM"),
    ("C=C(CN(C)C)C(=O)c1ccccc1C", "57.6 µM"),
    ("CC1(C)[C@H](C(=O)O)N2C(=O)[C@@H](NS(=O)(=O)c3ccc([N+](=O)[O-])cc3)[C@H]2S1(=O)=O", "> 100 µM"),
    ("O=C(OCc1ccccc1CN1CCOCC1)c1cccc(Br)c1", "> 100 µM"),
    ("Clc1ccc(CSC(Cn2ccnc2)c2ccc(Cl)cc2Cl)cc1 (stereo not given)", "6.5 µM"),
    ("N#CN=C(N)c1sc2nc3c(c(-c4ccc(Br)cc4)c2c1N)CCCC3", "57 µM"),
    ("CC(C)[C@]12O[C@H]1[C@@H]1O[C@]13[C@]1(O[C@H]1C[C@H]1C4=C(CC[C@@]13C)C(=O)OC4)[C@@H]2O", "> 100 µM"),
    ("Cc1ccc2c(c1)C(C)Cc1c(ncnc1-n1cnc3ccccc31)N2C (stereo not given)", "20.3 µM"),
    ("O=C(Nc1ccc(Cl)c(Cl)c1)c1cccc(NC2=C(Cl)C(=O)N(Cc3ccccc3)C2=O)c1", "> 100 µM"),
    ("Cc1ccc(S(=O)(=O)OC2CCN(C)CC2)cc1", "> 100 µM"),
    ("CC(=O)N[C@@H](Cc1ccc(OP(=O)(O)O)cc1)C(=O)N[C@H]1CCC(=O)N2CCC[C@@H](C(=O)NCc3ccc(Cl)cc3)N2C1=O", "> 25 µM"),
    ("CN(C)c1ccc2c(=O)c3ccccc3oc2n1", "> 100 µM"),
    ("COc1c(C=O)c2c(c(OC)c1OC)-c1ccc(OC)c(=O)cc1[C@@H](NC(C)=O)CC2", "> 100 µM"),
    ("O=C(O)C/C(=C\\c1ccco1)C(=O)O", "> 100 µM"),
    ("NCC(=O)NC1(c2cc3ccccc3s2)CCCCC1", "56.9 µM"),
    ("COc1ccc(C2CC(c3cc(OC)c(OC)c(OC)c3)=NO2)cc1OCCCCOc1cc2c(cc1OC)C(=O)N1CCC[C@H]1C=N2 (stereo not given in full)", "5.71 µM"),
    ("Nc1cc2c3c(c1)Oc1cc(N)cc4c1C3c1c(cc(N)cc1O4)O2", "> 51.3 µM"),
    ("Brc1ccc2[nH]cc(-c3csc(-c4ccccn4)n3)c2c1", "23.7 µM"),
    ("Nc1sc2c(c1C(=O)c1ccc(Cl)c(Cl)c1)CCCC2", "> 100 µM"),
    ("N=C(N)c1ccc(OCc2cccc(COc3ccc(C(=N)N)cc3)c2)cc1", "49.3 µM"),
    ("C=C(C)C(=O)O[C@H]1C/C(CO)=C/CCC(=C)C(OC(C)=O)[C@H]2OC(=O)C(=C)[C@H]12 (stereo not given in full)", "22.9 µM"),
    ("ClCCCN(CCCCl)c1ccc(C=Nc2cccc(Cl)c2)cc1", "> 100 µM"),
    ("C/C(CC/C(C)=N/O)=N\\O", "> 100 µM"),
]
